Reference source for all entries: PubChem BioAssay (NCI)

test system: HOP-62 NSCLC; experiment: NCI-60 one-dose screen, 48 h; details: 10 µM unless noted
This is part of a sample that, as a whole, favours compounds with a hit. Of some 83,000 tested, about 20% had one in any assay. The source made the active and inactive calls. How the source made its calls: active means growth percent below 10; inactive means the rest.
Possible outcomes: active, inactive

compound=C[C@@H](CO)[C@@H]1CCC=C2CC[C@]3(C)[C@H](CC[C@@H]4[C@@]5(C)CCCNC(C)(C)[C@@H]5CC[C@]43C)[C@H]21 class_assignment=inactive
compound="N#CC1=C(c2ccccc2)Nc2c(c(-c3ccc(Cl)cc3)nn2-c2ccccc2)C12C(=O)Nc1ccc(Cl)cc12 (configuration not stated)" class_assignment=inactive
compound="COc1ccc(/C=N/C2=C(C#N)C(c3ccccc3)c3ccc4ccccc4c3O2)cc1 (configuration not stated)" class_assignment=inactive
compound=COc1cc(OC)c(/C=C/C(=O)c2c(OC)cccc2OC)c(OC)c1 class_assignment=inactive
compound=CCc1ccccc1-n1c(-c2ccc(OC)cc2)cc(-c2ccc(OC)cc2)c(C#N)c1=O class_assignment=inactive
compound=O=C(Nc1cccc(-c2ccc(Cl)c(C(F)(F)F)c2)c1)C1CCN(Cc2cccc3cccnc23)CC1 class_assignment=inactive
compound=COc1ccccc1CNc1c2ccccc2nc2ccccc12 class_assignment=inactive
compound=CCCOC(=O)Nc1nc2ccc(SCC(C)C)cc2s1 class_assignment=inactive
compound=NS(=O)(=O)c1ccccc1NC(=O)Nc1nc2ccccc2s1 class_assignment=inactive
compound=C=C(C)[C@@H]1CC[C@]2(CO)CC[C@]3(C)[C@H](CC[C@@H]4[C@@]5(C)CC[C@H](NCO)C(C)(C)[C@@H]5CC[C@]43C)[C@@H]12 class_assignment=active
compound=O=c1[nH]c(-c2ccccc2)nc2sc3cc(O)ccc3c12 class_assignment=inactive
compound=Cc1ccc(/C=C2\COc3ccc(O)cc3C2=O)cc1 class_assignment=inactive
compound="CCN1C(=S)N(c2ccccc2)C2NC(=S)N(/N=C/C=C/c3ccccc3OC)C21 (configuration not stated)" class_assignment=inactive
compound=COC1=CC(c2ccc[nH]2)=N/C1=C\c1[nH]c(C)c(C)c1CCC(=O)OCc1ccccc1 class_assignment=active
compound=O=C(NCCNc1nccc(Nc2ccc(S(=O)(=O)Nc3ccccn3)cc2)n1)c1cccc([N+](=O)[O-])c1 class_assignment=inactive
compound=CCOc1ccc(NC(=O)CSc2oc(-c3ccccc3)nc2S(=O)(=O)c2ccc(C)cc2)cc1 class_assignment=inactive
compound="N#CC1=C(N)Oc2c(ccc3ccccc23)C1c1ccccc1 (configuration not stated)" class_assignment=inactive
compound=Cc1cc(C(=O)O)c(C)n1-c1cccc(C(=O)O)c1 class_assignment=inactive
compound=Nc1n[nH]c2cccc(C#Cc3cccc(NC(=O)c4cc(F)cc(C(F)(F)F)c4)c3)c12 class_assignment=inactive
compound=Cc1ccccc1/C=C/C(=O)c1cccc(OCCCCOc2cccc(C(=O)/C=C/c3ccccc3C)c2)c1 class_assignment=inactive
compound=CC(=O)Oc1ccc(/C(=C(\C)c2ccc(Cl)cc2)c2ccc(OCCN3CCCCC3)cc2)cc1 class_assignment=inactive
compound=Cc1[nH]c(C(=O)Nc2ccc(C(=O)N3CCN(c4cc5c(cc4F)c(=O)c(C(=O)O)cn5C4CC4)CC3)cc2OC(C)C)c(Cl)c1Cl class_assignment=inactive
compound=CCOC(=O)c1cc(C(=O)c2cc(OC)c(OC)c(OC)c2)n2ncccc12 class_assignment=inactive
compound=CSc1nc(N)c(NS(=O)(=O)c2ccc(C(C)=O)cc2)c(=O)[nH]1 class_assignment=inactive
compound=Oc1c(I)cc(I)cc1CNCc1ccccn1 class_assignment=inactive
compound=c1ccc(Cn2cc3c(c2)-c2oncc2CC3)cc1 class_assignment=inactive
compound=CSc1nc2ccccc2cc1/C=C1/C=C(c2ccccc2)NC1=O class_assignment=inactive
